Attribute: pKd
target: equine FcRn (large alpha subunit p51) / equine beta-2-microglobulin complex, biotinylated (equine) (UniProt P30441); experiment: SPR (Biacore), pH 6
The quantity pKd is defined as the negative base-10 logarithm of the molar concentration.

Check out these entries, answers already filled in.
equine IgG4 M428G (antibody, part only; not given: variable domains, not shown: another chain or arm of the molecule) constant: ASTTAPKVFPLASHSAATSGSTVALGCLVSSYFPEPVTVSWNSGALTSGVHTFPSVLQSSGLYSLSSMVTVPASSLKSQTYICNVAHPASSTKVDKKIVIKECNGGCPAECLQVGPSVFIFPPKPKDVLMISRTPTVTCVVVDVGHDFPDVQFNWYVDGVETHTATTEPKQEQFNSTYRVVSVLPIQHKDWLSGKEFKCKVNNKALPAPVERTISKPTGQPREPQVYVLAPHRDELSKNKVSVTCLVKDFYPTDIDIEWKSNGQPEPETKYSTTPAQLDSDGSYFLYSKLTVETNRWQQGTTFTCAVGHEALHNHYTEKSVSKSPGK: 7.50
equine IgG1 N434T (antibody, part only; not given: variable domains, not shown: another chain or arm of the molecule) constant: ASTTAPKVFALAPGCGTTSDSTVALGCLVSGYFPEPVKVSWNSGSLTSGVHTFPSVLQSSGFYSLSSMVTVPASTWTSETYICNVVHAASNFKVDKRIEPIPDNHQKVCDMSKCPKCPAPELLGGPSVFIFPPNPKDTLMITRTPEVTCVVVDVSQENPDVKFNWYMDGVEVRTATTRPKEEQFNSTYRVVSVLRIQHQDWLSGKEFKCKVNNQALPQPIERTITKTKGRSQEPQVYVLAPHPDELSKSKVSVTCLVKDFYPPEINIEWQSNGQPELETKYSTTQAQQDSDGSYFLYSKLSVDRNRWQQGTTFTCGVMHEALHTHYTQKNVSKNPGK: 7.71
equine IgG1 N434Y (antibody, part only; not given: Variable domains, not shown: another chain or arm of the molecule) constant: ASTTAPKVFALAPGCGTTSDSTVALGCLVSGYFPEPVKVSWNSGSLTSGVHTFPSVLQSSGFYSLSSMVTVPASTWTSETYICNVVHAASNFKVDKRIEPIPDNHQKVCDMSKCPKCPAPELLGGPSVFIFPPNPKDTLMITRTPEVTCVVVDVSQENPDVKFNWYMDGVEVRTATTRPKEEQFNSTYRVVSVLRIQHQDWLSGKEFKCKVNNQALPQPIERTITKTKGRSQEPQVYVLAPHPDELSKSKVSVTCLVKDFYPPEINIEWQSNGQPELETKYSTTQAQQDSDGSYFLYSKLSVDRNRWQQGTTFTCGVMHEALHYHYTQKNVSKNPGK: 8.67

Attention now turns to another entry.
Reported pKd for equine IgG1 T286S (antibody, part only; not given: Variable domains, not shown: another chain or arm of the molecule) constant: ASTTAPKVFALAPGCGTTSDSTVALGCLVSGYFPEPVKVSWNSGSLTSGVHTFPSVLQSSGFYSLSSMVTVPASTWTSETYICNVVHAASNFKVDKRIEPIPDNHQKVCDMSKCPKCPAPELLGGPSVFIFPPNPKDTLMITRTPEVTCVVVDVSQENPDVKFNWYMDGVEVRSATTRPKEEQFNSTYRVVSVLRIQHQDWLSGKEFKCKVNNQALPQPIERTITKTKGRSQEPQVYVLAPHPDELSKSKVSVTCLVKDFYPPEINIEWQSNGQPELETKYSTTQAQQDSDGSYFLYSKLSVDRNRWQQGTTFTCGVMHEALHNHYTQKNVSKNPGK was 7.88

Data credit: patent US20260070987A1
